Source of measurements: ChEMBL document CHEMBL1782010

Tested on: Nucleic Acid
Assay: Binding affinity to double strand RNA assessed as denaturation of double strand RNA to single strand RNA at 50 uM after 1 hr by fluorescence polarization assay
Format: nucleic-acid assay
Consider the cut-off -10%. If the recorded Activity is strictly smaller, the label is YES; if not, the label is NO.

{"columns": ["query smiles", "category"],
 "data": [
  ["COc1cccc(-c2nc3ccccc3nc2-c2cccc(OC)c2)c1", "NO"],
  ["COc1cccc(-c2nc3ccc(OC)cc3nc2-c2cccc(OC)c2)c1", "NO"],
  ["COc1cccc(-c2nc3ccc(C(=O)O)cc3nc2-c2cccc(OC)c2)c1", "NO"],
  ["O=C(O)c1ccc2nc(-c3ccc(O)cc3)c(-c3ccc(O)cc3)nc2c1", "NO"],
  ["COc1ccccc1-c1nc2ccc(C(=O)O)cc2nc1-c1ccccc1OC", "NO"],
  ["O=[N+]([O-])c1ccc2nc(-c3ccccn3)c(-c3ccccn3)nc2c1", "NO"],
  ["O=[N+]([O-])c1ccc2nc(-c3cccc(O)c3)c(-c3cccc(O)c3)nc2c1", "YES"],
  ["O=[N+]([O-])c1ccc2nc(-c3ccc(O)cc3)c(-c3ccc(O)cc3)nc2c1", "YES"],
  ["c1coc(-c2nc3ccccc3nc2-c2ccco2)c1", "YES"],
  ["O=C(NCc1ccccc1F)c1ccc2nc(-c3ccco3)c(-c3ccco3)nc2c1", "YES"],
  ["COc1ccc2nc(-c3ccccc3OC)c(-c3ccccc3OC)nc2c1", "NO"],
  ["COc1ccccc1CNC(=O)c1ccc2nc(-c3ccco3)c(-c3ccco3)nc2c1", "YES"],
  ["O=C(NCc1cccc(F)c1)c1ccc2nc(-c3ccco3)c(-c3ccco3)nc2c1", "YES"],
  ["COc1ccc(-c2nc3ccc(C(=O)O)cc3nc2-c2ccc(OC)cc2)cc1", "NO"],
  ["COC(=O)c1ccc2nc(-c3ccco3)c(-c3ccco3)nc2c1", "YES"],
  ["COC(=O)CNC(=O)c1ccc2nc(-c3ccco3)c(-c3ccco3)nc2c1", "YES"],
  ["COc1cc(CNC(=O)c2ccc3nc(-c4ccco4)c(-c4ccco4)nc3c2)cc(OC)c1OC", "NO"],
  ["O=C(NCc1cccs1)c1ccc2nc(-c3ccco3)c(-c3ccco3)nc2c1", "YES"],
  ["O=C(O)c1ccc2nc(-c3ccc4c(c3)OCO4)c(-c3ccc4c(c3)OCO4)nc2c1", "NO"],
  ["COc1ccccc1-c1nc2ccc([N+](=O)[O-])cc2nc1-c1ccccc1OC", "NO"],
  ["O=C(NCc1ccccn1)c1ccc2nc(-c3ccco3)c(-c3ccco3)nc2c1", "NO"],
  ["Oc1cccc(-c2nc3ccccc3nc2-c2cccc(O)c2)c1", "NO"],
  ["COc1ccccc1-c1nc2ccccc2nc1-c1ccccc1OC", "NO"]
]}
